Here the recorded growth is given for each entry.
test system: OVCAR-5 ovarian; assay: NCI-60 one-dose screen, 48 h (100 = growth as untreated, 0 = no growth, -100 = all killed); details: 10 µM unless noted
This is part of a sample that, as a whole, favours compounds with a hit. Of some 83,000 tested, about 20% had one in any assay. Active and inactive are the calls of the source. The calls were made as follows: active = growth percent below 10; inactive = the rest.

Substance smiles: CCC(=C(c1ccc(OCCN2CCCC2)cc1)c1ccc(OCCN2CCCC2)cc1)c1ccc(Cl)cc1
growth: 19.5% (inactive)

Substance smiles: COc1cc(CNC(=O)/C=C/C=C/c2ccc3c(c2)OCO3)ccc1OCc1cn(-c2ccc(C)c(C)c2)nn1
growth: 104% (inactive)

Substance smiles: O=C1C(Cl)=C(Nc2ccc(O)cc2)C(=O)N1Cc1ccc(Cl)cc1
growth: 85.3% (inactive)

Substance smiles: CS(=O)(=O)c1cccc(-c2c(-c3cccc(OS(N)(=O)=O)c3)nc3sccn23)c1
growth: 99.8% (inactive)

Substance smiles: Cc1cc2c([nH]1)CSc1cc(S(=O)(=O)c3ccccc3)c(=O)[nH]c1-2
growth: 69.9% [100 µM] (inactive)

Substance smiles: N#Cc1nc(-c2ccccc2)oc1S(=O)(=O)N1CCOCC1
growth: 103% (inactive)

Substance smiles: Cc1nn(-c2ccccc2)c(Oc2ccccn2)c1-c1nc2ccccc2s1
growth: 93.4% (inactive)

Substance smiles: COC(=O)CNC(=O)[C@H](Cc1ccccc1)NCc1ccncc1
growth: 105% (inactive)

Substance smiles: O=C1COCCN1c1ccc(Nc2nc(Cl)nc(OCc3cn(Cc4ccccc4)nn3)n2)cc1
growth: 105% (inactive)

Sourced from PubChem BioAssay (NCI)
